Target: Alpha-glucosidase (Saccharomyces cerevisiae S288c, UniProt P53341+P38158+P07265)
Test: Inhibition of yeast alpha-glucosidase
Assay type: protein assay
Lab note: compare IC50 with 4 µM, writing TRUE if less and FALSE if equal or more.

Q: API: query returns whether the compound falls strictly under 4 µM in IC50. Query: `Cc1coc2c3ccc4c(c3c3oc(-c5ccc(Cl)cc5)nc3c12)CCCC4(C)C`
Result: TRUE

Q: Okay, and `Cc1coc2c3ccc4c(c3c3oc(CCc5ccccc5)nc3c12)CCCC4(C)C` ?
Result: FALSE

Q: Okay, and `Cc1coc2c3ccc4c(c3c3oc(Cc5ccccc5)nc3c12)CCCC4(C)C` ?
Result: FALSE

Q: Okay, and `Cc1coc2c3ccc4c(c3c3oc(-c5ccc(Cl)c(Cl)c5)nc3c12)CCCC4(C)C` ?
Result: FALSE

Q: Okay, and `Cc1coc2c3ccc4c(c3c3oc(Cc5ccc(O)c(O)c5)nc3c12)CCCC4(C)C` ?
Result: TRUE
